Target: Integrin alpha4beta1 on B16F10 melanoma cells (Mus musculus, UniProt Q00651;P09055 Q00651:41-1039,P09055:21-798)
Sequence (Q00651 41-1039, chain 1 of 2): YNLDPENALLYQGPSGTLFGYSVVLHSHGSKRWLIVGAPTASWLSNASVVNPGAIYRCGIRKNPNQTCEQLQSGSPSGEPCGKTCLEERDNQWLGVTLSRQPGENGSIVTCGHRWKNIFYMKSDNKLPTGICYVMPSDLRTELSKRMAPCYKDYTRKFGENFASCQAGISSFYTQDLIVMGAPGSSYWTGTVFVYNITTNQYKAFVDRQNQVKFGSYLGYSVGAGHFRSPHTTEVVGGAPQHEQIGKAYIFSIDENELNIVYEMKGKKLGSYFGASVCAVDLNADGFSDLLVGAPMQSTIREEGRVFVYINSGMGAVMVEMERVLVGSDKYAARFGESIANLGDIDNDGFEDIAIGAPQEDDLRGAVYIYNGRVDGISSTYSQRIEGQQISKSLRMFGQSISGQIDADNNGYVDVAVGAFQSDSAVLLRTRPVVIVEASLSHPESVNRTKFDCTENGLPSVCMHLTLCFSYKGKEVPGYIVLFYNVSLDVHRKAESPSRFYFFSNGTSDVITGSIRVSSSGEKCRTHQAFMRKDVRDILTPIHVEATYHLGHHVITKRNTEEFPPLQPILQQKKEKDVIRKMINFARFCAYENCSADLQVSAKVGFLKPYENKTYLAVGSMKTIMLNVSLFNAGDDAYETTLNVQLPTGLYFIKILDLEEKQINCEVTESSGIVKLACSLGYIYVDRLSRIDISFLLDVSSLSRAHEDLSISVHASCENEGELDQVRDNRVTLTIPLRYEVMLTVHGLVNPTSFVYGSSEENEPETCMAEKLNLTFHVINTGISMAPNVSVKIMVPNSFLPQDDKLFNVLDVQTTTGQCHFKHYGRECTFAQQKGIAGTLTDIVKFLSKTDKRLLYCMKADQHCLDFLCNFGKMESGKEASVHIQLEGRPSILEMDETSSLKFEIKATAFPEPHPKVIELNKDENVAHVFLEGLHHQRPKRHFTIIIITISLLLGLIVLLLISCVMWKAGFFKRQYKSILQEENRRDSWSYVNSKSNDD
Sequence (P09055 21-798, chain 2 of 2): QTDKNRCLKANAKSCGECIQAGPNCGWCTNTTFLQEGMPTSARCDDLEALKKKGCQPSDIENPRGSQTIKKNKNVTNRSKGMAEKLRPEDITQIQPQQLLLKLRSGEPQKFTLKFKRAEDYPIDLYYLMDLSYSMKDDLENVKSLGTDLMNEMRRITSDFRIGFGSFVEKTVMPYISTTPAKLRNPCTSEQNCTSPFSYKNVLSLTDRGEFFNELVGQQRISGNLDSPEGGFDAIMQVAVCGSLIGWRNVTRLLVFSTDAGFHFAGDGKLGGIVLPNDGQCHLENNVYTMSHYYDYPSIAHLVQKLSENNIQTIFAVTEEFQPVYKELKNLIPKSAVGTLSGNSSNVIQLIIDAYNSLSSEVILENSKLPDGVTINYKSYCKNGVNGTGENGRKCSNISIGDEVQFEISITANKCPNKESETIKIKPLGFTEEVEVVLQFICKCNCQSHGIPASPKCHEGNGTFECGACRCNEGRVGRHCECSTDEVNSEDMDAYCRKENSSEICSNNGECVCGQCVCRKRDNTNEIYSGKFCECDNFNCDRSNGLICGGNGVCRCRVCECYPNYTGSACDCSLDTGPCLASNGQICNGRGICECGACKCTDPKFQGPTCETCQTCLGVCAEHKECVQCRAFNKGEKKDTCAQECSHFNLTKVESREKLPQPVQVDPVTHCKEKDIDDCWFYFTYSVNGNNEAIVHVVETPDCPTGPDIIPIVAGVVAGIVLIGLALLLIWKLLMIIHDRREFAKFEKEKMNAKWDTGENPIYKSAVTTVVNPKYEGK
Experiment: flow; apparent, 4 C
Details: tags: endogenous, ATCC cell line; label: biotin, FAM or Cy5; motif on top of a stem formed by flanking constant regions (predicted)
quantity.name: Kd (nM)
Answers are plain numbers, in nM.

Request: Any idea what its Kd is? The binder is HR7A1 (ssDNA) DNA: ATCCAGAGTGACGCAGCAAACCTGACCTCCTTACTAGATGCAACCCGACTACTAACGTCGTAAGAGAGCCTGGACACGGTGGCTTAGT
Result: 5.2
